endpoint: logP
A bare number is all that is needed in reply.

I'd like to know its logP. The molecule in question is "COc1cccc(N(C)C(=N)Nc2cc(SC)ccc2Cl)c1" 2.34

====

endpoint: logP

Any idea what its logP is? The compound is "O=[N+]([O-])c1ccccc1Br" 2.5

Given "CN(C)c1cccc([N+](=O)[O-])c1" , state its recorded logP. 2.16

Returns the measured logP for the input compound. Input: "O=[N+]([O-])c1cccc(Cl)c1" 2.59

Look up logP for this compound: "COc1cccc([N+](=O)[O-])c1" 2.09

Endpoint output: logP of "O=[N+]([O-])c1ccc(Cl)cc1" . Value? 2.45
